Attribution: patent US20240400614A1

Study target: uPA (Homo sapiens, UniProt P00749)
Protocol text: FRET peptide cleavage efficiency with uPA
Assay type: biochemical
Test conditions: t = 15 min; 200 uM linker, 1 ug/ml protease, 37° C., buffer A pH 8.5
Square brackets hold non-standard residues; d marks the D form. Ends that are not written are not given here. Tyr(3-NO2) = N[C@@H](Cc1ccc(O)c([N+](=O)[O-])c1)C(=O)O; 2Abz = Nc1ccccc1C(=O)O
Known % cleavage uPA t = 15 min of a selection of sequences
Report the figure in % without appending any unit label.

Solved cases (6 shown):
Sequence string: RGRRPLGLAG ([2Abz]RGRRPLGLAG[Tyr(3-NO2)]-NH2) [LNK049]
% cleavage uPA t = 15 min (%): 0

Sequence string: SGRVLPLGMRA ([2Abz]SGRVLPLGMRA[Tyr(3-NO2)]-NH2) [LNK023]
% cleavage uPA t = 15 min (%): 2

Sequence string: RQRRSAAPLGLAG ([2Abz]RQRRSAAPLGLAG[Tyr(3-NO2)]-NH2) [LNK028]
% cleavage uPA t = 15 min (%): 0

Sequence string: SGRVLPAGLVG ([2Abz]SGRVLPAGLVG[Tyr(3-NO2)]-NH2) [LNK007]
% cleavage uPA t = 15 min (%): 0

Sequence string: SGRVLTLRKAPWGLLE ([2Abz]SGRVLTLRKAPWGLLE[Tyr(3-NO2)]-NH2) [LNK004]
% cleavage uPA t = 15 min (%): 6

Sequence string: RGRRHSSKLQ ([2Abz]RGRRHSSKLQ[Tyr(3-NO2)]-NH2) [LNK052]
% cleavage uPA t = 15 min (%): 0

State the measured % cleavage uPA t = 15 min (uPA (Homo sapiens, UniProt P00749)) of SGRVANYFGKL ([2Abz]SGRVANYFGKL[Tyr(3-NO2)]-NH2) [LNK054]
33

Give uPA (Homo sapiens, UniProt P00749) % cleavage uPA t = 15 min for the following sequence: RGRRSGRAANLVRPLGYFGKL ([2Abz]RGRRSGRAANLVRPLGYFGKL[Tyr(3-NO2)]-NH2) [LNK059]
67

Give % cleavage uPA t = 15 min only, for GSSYYSGA ([2Abz]GSSYYSGA[Tyr(3-NO2)]-NH2) [LNK079] , using uPA (Homo sapiens, UniProt P00749) data.
0

* * *

Study target: MMP-2 (Homo sapiens, UniProt P08253)
Construct: purchased SIGMA PF023
Sequence (P08253 110-660): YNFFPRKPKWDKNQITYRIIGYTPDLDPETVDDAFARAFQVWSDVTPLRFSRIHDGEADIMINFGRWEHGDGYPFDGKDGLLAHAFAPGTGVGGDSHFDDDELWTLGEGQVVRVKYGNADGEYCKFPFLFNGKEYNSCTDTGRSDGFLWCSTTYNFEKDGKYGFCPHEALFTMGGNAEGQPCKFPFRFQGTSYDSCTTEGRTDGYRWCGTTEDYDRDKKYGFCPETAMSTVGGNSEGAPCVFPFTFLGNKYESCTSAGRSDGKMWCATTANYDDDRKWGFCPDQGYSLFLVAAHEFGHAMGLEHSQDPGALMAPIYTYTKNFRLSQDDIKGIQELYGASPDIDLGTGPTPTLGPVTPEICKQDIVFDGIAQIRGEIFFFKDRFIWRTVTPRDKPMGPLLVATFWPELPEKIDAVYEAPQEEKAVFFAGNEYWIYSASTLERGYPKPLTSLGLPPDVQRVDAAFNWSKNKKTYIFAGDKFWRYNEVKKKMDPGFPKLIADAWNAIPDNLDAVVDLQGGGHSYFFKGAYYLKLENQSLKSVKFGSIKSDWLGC
Protocol text: FRET peptide cleavage efficiency with MMP-2
Assay type: biochemical
Test conditions: t = 15 min (Table 9)
Square brackets hold non-standard residues; d marks the D form. Ends that are not written are not given here. Tyr(3-NO2) = N[C@@H](Cc1ccc(O)c([N+](=O)[O-])c1)C(=O)O; 2Abz = Nc1ccccc1C(=O)O
Examples of sequences with documented % cleavage MMP-2 t = 15 min follow.
Write the numeric value and append its unit.

Example cases with answers are listed next.
Sequence string: RGRRHSSKLQ ([2Abz]RGRRHSSKLQ[Tyr(3-NO2)]-NH2) [LNK052]
Study target: MMP-2 (Homo sapiens, UniProt P08253)
Reported property: % cleavage MMP-2 t = 15 min
Meas value: 1%
//
Sequence string: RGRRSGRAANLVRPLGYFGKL ([2Abz]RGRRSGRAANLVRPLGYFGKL[Tyr(3-NO2)]-NH2) [LNK059]
Study target: MMP-2 (Homo sapiens, UniProt P08253)
Reported property: % cleavage MMP-2 t = 15 min
Meas value: 77%
//
Sequence string: GSGSGSGS ([2Abz]GSGSGSGS[Tyr(3-NO2)]-NH2) [LNK064]
Study target: MMP-2 (Homo sapiens, UniProt P08253)
Reported property: % cleavage MMP-2 t = 15 min
Meas value: 0%

API: the following record is the query input.
Consider the sequence SGRVAPQPLVD (not fully specified (N-terminus, C-terminus)) [LNK046] tested on MMP-2 (Homo sapiens, UniProt P08253); state its % cleavage MMP-2 t = 15 min.
19%
